Target: T1, similar peptide SP-05-0007, source protein not stated peptide on HLA-A*02:01 (human)
T1 peptide: KIFPALCTV
Test: killing
attribute measured: binding result

Returns the measured binding result for the input binder. Input: TCR-10 (TCR, V domains shown) Valpha: QNIDQPTEMTATEGAIVQINCTYQTSGFNGLFWYQQHAGEAPTFLSYNVLDGLEEKGRFSSFLSRSKGYSYLLLKELQMKDSASYLCAVPAPYTGTASKLTFGTGTRLQVTL Vbeta: GVTQTPKFQVLKTGQSMTLQCAQDMNHNSMYWYRQDPGMGLRLIYYSASEGTTDKGEVPNGYNVSRLNKREFSLRLESAAPSQTSVYFCASSEGYSTYNEQFFGPGTRLTVL
no recognition

Can you check TCR-9 (TCR, V domains shown) Valpha: EDVEQSLFLSVREGDSSVINCTYTDSSSTYLYWYKQEPGAGLQLLTYIFSNMDMKQDQRLTVLLNKKDKHLSLRIADTQTGDSAIYFCAEKETAGNKLTFGGGTRVLVKP Vbeta: EPEVTQTPSHQVTQMGQEVILRCVPISNHLYFYWYRQILGQKVEFLVSFYNNEISEKSEIFDDQFSVERPDGSNFTLKIRSTKLEDSAMYFCASTVQSPRTNEQFFGPGTRLTVL next?
no recognition

Can you check TCR-1 (TCR, V domains shown) Valpha: QTVTQSQPEMSVQEAETVTLSCTYDTSENNYYLFWYKQPPSRQMILVIRQEAYKQQNATENRFSVNFQKAAKSFSLKISDSQLGDTAMYFCAPLGLVAGSARQLTFGSGTQLTVLP Vbeta: GVSQDPRHKITKRGQNVTFRCDPISEHNRLYWYRQTLGQGPEFLTYFQNEAQLEKSRLLSDRFSAERPKGSFSTLEIQRTEQGDSAMYLCASSTDITSYEQYFGPGTRLTVT next?
no recognition
